Numbers sourced from the supplement of paper PMC6555819.

- Test system: THRa homodimer (NR concentration 90 nM)
- protocol.notes: PBM binding z-score (relative to random genomic background probes); higher = stronger binding; sequences stand for … in GC…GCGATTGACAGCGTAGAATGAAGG
metric: PBM binding z-score
// print number alone

Given `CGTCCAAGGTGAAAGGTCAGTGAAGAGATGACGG` , state its recorded PBM binding z-score.
1.23

Moving on to the next sequence: `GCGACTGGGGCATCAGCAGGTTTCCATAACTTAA`
-0.144

Moving on to the next sequence: `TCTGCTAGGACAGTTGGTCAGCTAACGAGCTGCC`
-0.784

Moving on to the next sequence: `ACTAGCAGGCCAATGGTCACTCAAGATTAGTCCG`
-0.672

Moving on to the next sequence: `CCTCCAAGGTCAGCAGGTCAGTGAAAGCGACGTG`
2.14

Moving on to the next sequence: `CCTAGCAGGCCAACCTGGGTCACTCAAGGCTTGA`
0.233

Moving on to the next sequence: `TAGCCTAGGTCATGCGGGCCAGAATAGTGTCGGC`
0.922

Moving on to the next sequence: `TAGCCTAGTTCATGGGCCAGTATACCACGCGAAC`
0.00574

Moving on to the next sequence: `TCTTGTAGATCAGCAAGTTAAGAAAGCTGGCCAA`
-1.04

Moving on to the next sequence: `TCGAGTAGTTTACCAATGGGGCATTCAGCTTTCT`
-0.644

Moving on to the next sequence: `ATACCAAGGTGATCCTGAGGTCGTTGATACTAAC`
2.52

Moving on to the next sequence: `ATCTCTAGGTAAGAGTTCAGTGAATCCCGAGGAT`
0.129

Moving on to the next sequence: `ATATGTAGGTTATCGGGTCATTTAGTTTGCGCAT`
2.86

Moving on to the next sequence: `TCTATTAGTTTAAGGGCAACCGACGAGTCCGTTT`
2.56

Moving on to the next sequence: `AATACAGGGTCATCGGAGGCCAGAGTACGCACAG`
1.96

Moving on to the next sequence: `ACTAGCAGGACAAGTTTGGGTCACTCAAACAAAG`
1.42

Moving on to the next sequence: `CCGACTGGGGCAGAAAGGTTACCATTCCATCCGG`
-0.451

Moving on to the next sequence: `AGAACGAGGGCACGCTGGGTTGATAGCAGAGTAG`
0.224

Moving on to the next sequence: `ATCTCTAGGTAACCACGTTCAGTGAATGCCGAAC`
0.721

Moving on to the next sequence: `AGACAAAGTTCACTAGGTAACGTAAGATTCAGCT`
-0.00149

Moving on to the next sequence: `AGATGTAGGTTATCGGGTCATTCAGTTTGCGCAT`
2.87

Moving on to the next sequence: `GGAACGAGGGCAAAGTTGCTAGCATCTGTCGACG`
-0.505

Moving on to the next sequence: `TCTGCTAGGTCAACGATGGTCGGCTAATCTGCTA`
0.478

Moving on to the next sequence: `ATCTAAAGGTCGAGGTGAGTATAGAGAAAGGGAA`
1.31

Moving on to the next sequence: `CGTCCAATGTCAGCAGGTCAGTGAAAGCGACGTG`
0.239

Moving on to the next sequence: `AGGATGAGGTTATACGTAGATCAGGGAAGAAAGT`
1.27

Moving on to the next sequence: `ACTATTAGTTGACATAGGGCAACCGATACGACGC`
0.125

Moving on to the next sequence: `GCTATTAGTTGAAAGGGCAACCGGATGATTCTCG`
-0.119

Moving on to the next sequence: `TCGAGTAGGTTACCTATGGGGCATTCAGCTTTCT`
-0.89

Moving on to the next sequence: `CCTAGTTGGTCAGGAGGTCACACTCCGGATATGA`
2.46

Moving on to the next sequence: `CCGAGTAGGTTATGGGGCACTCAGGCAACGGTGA`
0.0948

Moving on to the next sequence: `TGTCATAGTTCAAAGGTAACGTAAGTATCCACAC`
0.118

Moving on to the next sequence: `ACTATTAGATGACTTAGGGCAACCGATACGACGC`
0.469

Moving on to the next sequence: `CCTACTGGGCCATCAAGTCATTGATATCAACGTT`
-0.0575

Moving on to the next sequence: `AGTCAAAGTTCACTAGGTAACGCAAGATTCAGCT`
0.154

Moving on to the next sequence: `ATCTCTAGGTAAAGGTTCAGTGAATCCCGAGGAT`
0.351

Moving on to the next sequence: `CCTCGGCGGACAACAGGAGGTCAGAGCTGCCAGA`
0.00224

Moving on to the next sequence: `CTCGAAAGGTCGTGCTCAGGTGCGTATACCAAAC`
0.271

Moving on to the next sequence: `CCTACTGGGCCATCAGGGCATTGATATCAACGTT`
-0.276

Moving on to the next sequence: `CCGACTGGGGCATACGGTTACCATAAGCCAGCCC`
-0.389

Moving on to the next sequence: `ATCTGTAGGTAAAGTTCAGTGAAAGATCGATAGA`
-0.247

Moving on to the next sequence: `CAAACTAGGTCAACGTCAAAGTCGGTTTGTGCCA`
1.02

Moving on to the next sequence: `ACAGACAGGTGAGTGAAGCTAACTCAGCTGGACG`
-1.16

Moving on to the next sequence: `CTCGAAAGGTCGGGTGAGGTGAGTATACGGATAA`
1.91

Moving on to the next sequence: `CTCGAAAGGTCTTGCTCAGGTGAGTATACCAAAC`
0.893

Moving on to the next sequence: `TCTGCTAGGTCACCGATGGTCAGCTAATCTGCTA`
1.23

Moving on to the next sequence: `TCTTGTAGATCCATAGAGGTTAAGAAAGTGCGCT`
-0.276

Moving on to the next sequence: `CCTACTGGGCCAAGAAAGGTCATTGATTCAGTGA`
0.419

###

- Test system: PPARa:RXRa (NR concentration 270 nM, RXRa partner concentration 90 nM)
- protocol.notes: PBM binding z-score (relative to random genomic background probes); higher = stronger binding; sequences stand for … in GC…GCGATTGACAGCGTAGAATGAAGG
metric: PBM binding z-score
// print number alone

Given `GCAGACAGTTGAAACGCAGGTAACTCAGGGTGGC` , state its recorded PBM binding z-score.
-0.162

Moving on to the next sequence: `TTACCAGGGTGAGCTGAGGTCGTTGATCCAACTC`
1.87

Moving on to the next sequence: `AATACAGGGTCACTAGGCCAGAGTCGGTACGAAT`
5.61

Moving on to the next sequence: `ACAGACGGGTGAGTGAAGGTAACTCAGCTGGACG`
0.0344

Moving on to the next sequence: `CGTCCAAGGTCAATGCTAGGTCAGTGACAGCATT`
5.31

Moving on to the next sequence: `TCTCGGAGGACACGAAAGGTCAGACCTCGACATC`
3.57

Moving on to the next sequence: `GGAACGAGGGCATTCGTGTTGATAGCATGGCGAT`
1.39

Moving on to the next sequence: `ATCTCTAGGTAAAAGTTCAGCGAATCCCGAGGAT`
4.39

Moving on to the next sequence: `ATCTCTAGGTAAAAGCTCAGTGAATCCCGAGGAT`
0.485

Moving on to the next sequence: `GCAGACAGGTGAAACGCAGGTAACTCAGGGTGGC`
0.864

Moving on to the next sequence: `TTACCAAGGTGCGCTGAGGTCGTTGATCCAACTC`
0.971

Moving on to the next sequence: `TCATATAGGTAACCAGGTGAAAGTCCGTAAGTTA`
2.95

Moving on to the next sequence: `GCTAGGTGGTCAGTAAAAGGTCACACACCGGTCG`
4.56

Moving on to the next sequence: `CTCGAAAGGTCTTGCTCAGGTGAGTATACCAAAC`
0.978

Moving on to the next sequence: `ATCTCTAGGTAACCATGTTCAGTGAATGCCGAAC`
0.518

Moving on to the next sequence: `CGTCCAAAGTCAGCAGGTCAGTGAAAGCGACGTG`
1.24

Moving on to the next sequence: `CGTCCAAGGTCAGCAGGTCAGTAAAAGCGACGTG`
4.9

Moving on to the next sequence: `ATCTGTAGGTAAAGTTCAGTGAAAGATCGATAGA`
2.28

Moving on to the next sequence: `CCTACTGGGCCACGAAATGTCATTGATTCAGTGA`
0.653

Moving on to the next sequence: `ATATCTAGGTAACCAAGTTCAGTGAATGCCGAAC`
2.98

Moving on to the next sequence: `CGTCCAAGGTCTATGCTAGGTCAGTGAAAGCATT`
0.535

Moving on to the next sequence: `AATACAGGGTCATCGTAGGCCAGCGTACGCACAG`
6.28

Moving on to the next sequence: `CAAACTAGGTCACAGAGGTCAAAGACCGTGCGTA`
6.52

Moving on to the next sequence: `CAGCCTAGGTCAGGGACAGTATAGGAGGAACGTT`
2.34

Moving on to the next sequence: `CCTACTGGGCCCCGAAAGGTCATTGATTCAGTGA`
3.93

Moving on to the next sequence: `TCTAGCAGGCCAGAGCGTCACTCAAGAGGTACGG`
-0.0685

Moving on to the next sequence: `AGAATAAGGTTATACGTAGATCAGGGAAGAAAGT`
2.65

Moving on to the next sequence: `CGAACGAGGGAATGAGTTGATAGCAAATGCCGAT`
-1.17

Moving on to the next sequence: `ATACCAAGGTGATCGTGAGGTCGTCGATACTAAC`
1.75

Moving on to the next sequence: `TCATATAGGTAAACAGGTGAAAATCCGTAAGTTA`
2.23

Moving on to the next sequence: `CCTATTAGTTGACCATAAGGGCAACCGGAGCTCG`
0.657

Moving on to the next sequence: `CAAACTAGGTCAAGACGTCAAAGTCCGCTTCCCG`
4.81

Moving on to the next sequence: `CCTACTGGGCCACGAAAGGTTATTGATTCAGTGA`
2.58

Moving on to the next sequence: `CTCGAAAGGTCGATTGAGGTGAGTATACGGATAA`
4.12

Moving on to the next sequence: `TCTTGTAAATCAACAGGAGGTTAAGAAAGATCGA`
1.36

Moving on to the next sequence: `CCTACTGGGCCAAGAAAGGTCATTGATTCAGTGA`
4.33

Moving on to the next sequence: `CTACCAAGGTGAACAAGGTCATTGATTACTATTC`
3.92

Moving on to the next sequence: `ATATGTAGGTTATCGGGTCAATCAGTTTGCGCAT`
4.99

Moving on to the next sequence: `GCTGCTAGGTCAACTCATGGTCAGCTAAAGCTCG`
3.73
